target-desc: human A2A receptors (Homo sapiens (Human), UniProt P29274)
Sequence (P29274 whole entry): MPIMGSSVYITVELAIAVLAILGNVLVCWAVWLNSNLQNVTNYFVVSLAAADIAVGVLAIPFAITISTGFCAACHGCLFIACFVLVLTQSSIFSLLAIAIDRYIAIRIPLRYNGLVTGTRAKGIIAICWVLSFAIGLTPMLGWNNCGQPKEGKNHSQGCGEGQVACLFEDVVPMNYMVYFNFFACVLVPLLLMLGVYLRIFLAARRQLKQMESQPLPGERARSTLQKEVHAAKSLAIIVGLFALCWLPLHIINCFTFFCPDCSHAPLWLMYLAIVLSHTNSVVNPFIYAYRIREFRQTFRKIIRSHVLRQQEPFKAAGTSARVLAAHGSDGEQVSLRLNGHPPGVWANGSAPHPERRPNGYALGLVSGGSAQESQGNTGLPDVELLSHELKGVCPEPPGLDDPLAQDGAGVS
measurement-notes: A2A antagonism in cAMP cell-based assay (LANCE cAMP, HEK293)
measurement-context: HEK293 cells expressing human A2A receptor
reported-endpoint: IC50 (nM)

Illustrative cases are given below, each with its answer.
COc1cc2nc(N)n3nc(C4CCC(C)N(c5cnn(CC(C)(C)N)c5)C4)nc3c2cc1F (single isomer, unassigned) [Example 262]; 2.2
COc1cc2nc(N)n3nc([C@@H]4CCCN(c5cnn(C(C)C(C)O)c5C)C4)nc3c2cc1F (single isomer, unassigned) [Example 196]; 3.7

(I) COc1cc2nc(N)n3nc([C@@H]4CCCN(c5cnn(C(C)(C)C(C)O)c5)C4)nc3c2cc1F (single isomer, unassigned) [Example 243]
(II) Cc1nn(C(C)C(C)O)cc1N1CC(C)CC(c2nc3c4cc(F)cc(F)c4nc(N)n3n2)C1 (single isomer, unassigned) [Example 214]
Higher IC50 between I and II ? Lab log: write the label of the selected item as the result.
I

(P) COc1cc2nc(N)n3nc(C4CCC(C)N(c5cnn(CC6(O)CC6)c5)C4)nc3c2cc1F (single isomer, unassigned) [Example 272]
(Q) Cc1nn(CC(C)(C)O)cc1N1CCC[C@@H](c2nc3c4cc(F)c(OC(F)F)cc4nc(N)n3n2)C1 [Example 154]
Higher IC50 between P and Q ? Lab log: write the label of the selected item as the result.
P

---

target-desc: human A2B receptors (Homo sapiens (Human))
Sequence (P29275 whole entry): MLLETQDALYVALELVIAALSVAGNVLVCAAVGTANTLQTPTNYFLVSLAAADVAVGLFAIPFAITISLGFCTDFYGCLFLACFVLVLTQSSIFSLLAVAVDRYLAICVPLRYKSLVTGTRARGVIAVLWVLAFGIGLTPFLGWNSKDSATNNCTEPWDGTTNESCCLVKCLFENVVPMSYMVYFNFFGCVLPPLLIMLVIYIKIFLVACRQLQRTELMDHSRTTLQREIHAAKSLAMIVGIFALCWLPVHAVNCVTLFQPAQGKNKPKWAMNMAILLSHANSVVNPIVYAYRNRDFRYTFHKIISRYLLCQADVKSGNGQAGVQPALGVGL
measurement-notes: A2B antagonism in cAMP cell-based assay (LANCE cAMP, HEK293)
measurement-context: HEK293 cells expressing human A2B receptor
reported-endpoint: IC50 (nM)

COc1cc(F)cc2c1nc(N)n1nc(C3CCC(C)N(c4cnn(C(C)(C)C(C)O)c4)C3)nc21 (single isomer, unassigned) [Example 270]; 30.3
CC(O)C(C)n1cc(N2CC(c3nc4c5cc(F)cc(F)c5nc(N)n4n3)CCC2C)cn1 (single isomer, unassigned) [Example 235]; 4450

(I) COc1cc(F)cc2c1nc(N)n1nc(C3CC(C)CN(c4cnn(CC(C)(C)O)c4C)C3)nc21 (single isomer, unassigned) [Example 173]
(II) C[C@@H]1CC[C@H](c2nc3c4cc(F)cc(F)c4nc(N)n3n2)CN1c1cnn(C(C)(CO)CO)c1 (single isomer, unassigned)
(III) CC(O)C(C)(C)n1cc(N2CCC[C@@H](c3nc4c5cc(F)cc(F)c5nc(N)n4n3)C2)cn1 (single isomer, unassigned) [Example 246]
(IV) Cc1nn(C(C)(C)CO)cc1N1CC(C)CC(c2nc3c4cc(F)cc(F)c4nc(N)n3n2)C1 (single isomer, unassigned) [Example 178]
Order the 4 molecules from highest to lowest IC50. Could you list the labels in the order requested?
I, II, III, IV
(I: 2020 nM, II: 197 nM, III: 21.3 nM, IV: 11.5 nM)

---

target-desc: human A2b adenosine receptor (Homo sapiens (Human))
Sequence (P29275 whole entry): as the sequence (P29275 whole entry) above
measurement-notes: A2b radioligand filtration binding assay
measurement-context: @ 10000 nM
reported-endpoint: A2B binding % Inh. @ 10000 nM (% Inh.)

COc1cc2nc(N)n3nc(C4CN(c5cnn(CC(C)(C)O)c5)CCC4C)nc3c2cc1F (single isomer, unassigned); 31
COc1cc(F)cc2c1nc(N)n1nc(C3CC(F)CN(c4cn(CC(C)(C)O)nc4C)C3)nc21 (single isomer, unassigned) [Example 76]; 34
COc1cc(F)cc2c1nc(N)n1nc([C@H]3CC[C@H](C)N(c4cn(CC(C)(C)O)nc4C)C3)nc21 (single isomer, unassigned); 35

(A) COc1cc(F)cc2c1nc(N)n1nc([C@@H]3C[C@H](F)CN(c4cnn(CC(C)(C)O)c4)C3)nc21 (single isomer, unassigned)
(B) COc1cc(F)cc2c1nc(N)n1nc([C@H]3C[C@H](F)CN(c4cnn(CC(C)(C)O)c4)C3)nc21 (single isomer, unassigned)
Higher A2B binding % Inh. @ 10000 nM between A and B ? Lab log: write the label of the selected item as the result.
B
(B: 54 % Inh., A: 31 % Inh.)
